- target entity: Neu5Ac9Ac(a2-6)Gal(b1-4)GlcNAc
- protocol: glycan array binding signal (z-score within array); higher = stronger binding
- run parameters: glycan notation: IUPAC condensed, linker removed
About 410 targets per protein were measured; listed, in parts, are those with the strongest signals and a random draw of the rest.
# glycan array binding signal (z-score) values compiled below
Returns: the value as a bare number; no unit string appended.

binder | assay result
Langerin CRD (Homo sapiens), Q9UJ71 (protein) QVVSQGWKYFKGNFYYFSLIPKTWYSAEQFCVSRNSHLTSVTSESEQEFLYKTAGGLIYWIGLTKAGMEGDWSWVDDTPFNKVQSVRFWIPGEPNNAGNNEHCGNIKAPSLQAWNDAPCDKTFLFICKRPYVPSEPSAWSHPQFEK | -0.422
Arath Fbox (Arabidopsis thaliana), NP_178341.1 (protein) EFTWGRKRRVKSESSPFDSFPEDCISYIISFTNPRDACVAATVSKTFESTVKSDIIWEKFLPADYESLIPPSRVFSSKKELYFSLCNDPVLFDDDKKSVWLEKASGKRCLMLSAMNLSIIWGDNPQYWQWIPIPESRFEKVAKLRDVCWFEIRGRTNTRVLSPRTRYSAYIVFKGVDKCYGFQNVAIEAAVGVVGQEPSRRLICFSEAIRRGRRNVVKPKQREDGWMEIELGEFFNDGGIMDNDEIEMSALETKQLNRKCGLIIQGIEIRPAKILAAAAASFLEQKLISEEDLNSAVDHHHHHH | -0.681

Now, please, on to the next binder.
Any idea what its glycan array binding signal (z-score) is? The binder is CAA (Caragana arborescens) (protein) VAVEFDTFDNPDWDPRTKHIGIDVNSIRSNKTTQWGFWNRQVADVDISYEASSKTLNVSLYYPGESYIVTDVVDLKDILPEWVRIGF
-0.245
